assayProtocol: isobaric coefficient of expansion
conditionSet: 328.15 K; 10000 kPa; Liquid; DSC with Pressure Shift
measurementKind: isobaric coefficient of expansion

Sample records with isobaric coefficient of expansion:
molecule: CCCCCO
reportedResult: 0.00093 1/K
--
molecule: CCCCCN
reportedResult: 0.00114 1/K
--
molecule: CCO
reportedResult: 0.00112 1/K
--
molecule: CCC(O)CC
reportedResult: 0.00107 1/K
--
molecule: CCCO
reportedResult: 0.00104 1/K
--
molecule: CCCCCCCO
reportedResult: 0.000876 1/K

Lookup result for CCCC(C)O (stereo unspecified) ; measured isobaric coefficient of expansion: 0.00107 1/K

Lookup result for CCCCCCCCCCO ; measured isobaric coefficient of expansion: 0.000827 1/K

Lookup result for CCCCCCO ; measured isobaric coefficient of expansion: 0.0009 1/K

Lookup result for CCCCCCCCO ; measured isobaric coefficient of expansion: 0.00085 1/K

Lookup result for CCCCCCCCCO ; measured isobaric coefficient of expansion: 0.00084 1/K

Hey, just so you know, these numbers are from the NIST ThermoML archive (doi:10.1016/j.jct.2009.07.002).
